The measurements presented in this section are drawn from patent US8754242B2.

# Tested on: Avena fatua (AVEFA)
# assayNotes: Test Example 1 post-emergence herbicidal activity
# Type: in vivo
# testConditions: 360 h, rate 125 g/ha, evaluated 15 days later, read-out: Post-emergence activity AVEFA (100=total damage to plant; 0=no damage to plant)
pest or weed control at 125 g/ha reference
Write down the numeric answer in % and omit the unit.

compound	quantitativeResult
CCc1cc(C)cc(CC)c1C1=C(O)[C@@H]2[C@@H]3O[C@@H](C[C@H]3c3cc(F)cc(F)c3)[C@@H]2C1=O [Example T173]	90

Task: Need pest or weed control at 125 g/ha, item CCc1ccc(Br)cc1C1=C(O)[C@H]2[C@@H](C1=O)[C@@H]1CC[C@H]2O1 [Example T134]
Result: 20

Task: Need pest or weed control at 125 g/ha, item Cc1cc(C)c(C2=C(O)[C@H]3[C@@H](C2=O)[C@]2(C)CC[C@@]3(C)O2)c(C)c1 [Example T6]
Result: 80

Task: Need pest or weed control at 125 g/ha, item CCc1cc(C)cc(CC)c1C1=C(O)[C@@H]2[C@@H]3O[C@@H](C[C@H]3c3cccc(C(F)(F)F)c3)[C@@H]2C1=O [Example T154]
Result: 60
